Tested on: BRCA2
Assay: 3' UTR reporter interaction score (median-centred robust z-score of log2 firefly/Renilla activity); higher = less repression of the 3' UTR reporter
Conditions: HEK293T; 48 h
Below, each entry is listed alongside its reported 3' UTR reporter interaction score.
Write the number on its own, no unit after it.

ACUCAAAAUGGGGGCGCUUUCC; -0.27
AAACCGUUACCAUUACUGAGUUU; 0.378
GUCAACACUUGCUGGUUUCCUC; 1.05

// switching to the query sequence
Entry `CAAAACUGGCAAUUACUUUUGC` : reported 3' UTR reporter interaction score = ? -0.307

###

System: HRAS
Test: 3' UTR reporter interaction score (median-centred robust z-score of log2 firefly/Renilla activity); higher = less repression of the 3' UTR reporter
Conditions: HEK293T; 48 h
Please note: Satisfied applies when 3' UTR reporter interaction score is 0.1 or greater, and Not satisfied applies otherwise.

Below are worked cases with known answers.
UUCACCACCUUCUCCACCCAGC; Not satisfied
UGCACCAUGGUUGUCUGAGCAUG; Not satisfied
AAUGACACGAUCACUCCCGUUGA; Satisfied
UGAAACAUACACGGGAAACCUCUU; Not satisfied
UGAGGUAGUAGGUUGUAUAGUU; Satisfied
UACAGUAGUCUGCACAUUGGUU; Not satisfied
AUCCCUUGCAGGGGCUGUUGGGU; Not satisfied
UUAUAAUACAACCUGAUAAGUG; Satisfied

Textbook exercise: given the entry `GGCUGGCUCGCGAUGUCUGUUU` , state whether its 3' UTR reporter interaction score is greater than or equal to 0.1. Not satisfied

Textbook exercise: given the entry `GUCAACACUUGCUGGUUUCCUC` , state whether its 3' UTR reporter interaction score is greater than or equal to 0.1. Not satisfied

Textbook exercise: given the entry `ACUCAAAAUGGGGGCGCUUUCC` , state whether its 3' UTR reporter interaction score is greater than or equal to 0.1. Satisfied

Textbook exercise: given the entry `CACCCGUAGAACCGACCUUGCG` , state whether its 3' UTR reporter interaction score is greater than or equal to 0.1. Satisfied

Textbook exercise: given the entry `AUUCUAAUUUCUCCACGUCUUUG` , state whether its 3' UTR reporter interaction score is greater than or equal to 0.1. Satisfied

Textbook exercise: given the entry `AAAGUGCCUCCUUUUAGAGUGU` , state whether its 3' UTR reporter interaction score is greater than or equal to 0.1. Satisfied

Textbook exercise: given the entry `UGUGACUGGUUGACCAGAGGG` , state whether its 3' UTR reporter interaction score is greater than or equal to 0.1. Not satisfied

###

Below, each entry is listed alongside its reported 3' UTR reporter interaction score.
Tested on: FBXW7
Assay: 3' UTR reporter interaction score (median-centred robust z-score of log2 firefly/Renilla activity); higher = less repression of the 3' UTR reporter
Conditions: HEK293T; 48 h

Example entries begin here.
AGUUAAUGAAUCCUGGAAAGU; 0.0665
CAUCUGGAGGUAAGAAGCACUUU; 0.143
GAAGUGUGCCGUGGUGUGUCU; 1.69

# get_value(readout= 3' UTR reporter interaction score, system= FBXW7) for `UUUCCUAUGCAUAUACUUCUUU` 0.0806

# get_value(readout= 3' UTR reporter interaction score, system= FBXW7) for `UGGAAUGUAAGGAAGUGUGUGG` -0.356

# get_value(readout= 3' UTR reporter interaction score, system= FBXW7) for `UGAGGUAGUAGUUUGUGCUGU` 0.144

# get_value(readout= 3' UTR reporter interaction score, system= FBXW7) for `UUCCCUUUGUCAUCCUAUGCCU` -1.78

# get_value(readout= 3' UTR reporter interaction score, system= FBXW7) for `AAUUGCACGGUAUCCAUCUGUA` -6.72

###

Tested on: FBXW7
Assay: 3' UTR reporter interaction score (median-centred robust z-score of log2 firefly/Renilla activity); higher = less repression of the 3' UTR reporter
Details: HEK293T; 48 h
measured.metric: 3' UTR reporter interaction score
Write the number on its own, no unit after it.

AGCAGCAUUGUACAGGGCUAUGA; -0.997

Entry `UAUGCAUUGUAUUUUUAGGUCC` : reported 3' UTR reporter interaction score = ? -0.388

Entry `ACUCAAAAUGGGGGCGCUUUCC` : reported 3' UTR reporter interaction score = ? -0.231

###

Test system: EZH2
Assay: 3' UTR reporter interaction score (median-centred robust z-score of log2 firefly/Renilla activity); higher = less repression of the 3' UTR reporter
Conditions: HEK293T; 48 h
just bin them by 3' UTR reporter interaction score: LOW (below -0.3), MID (-0.3 to below 0.2), HIGH (0.2 or more)

Below are worked cases with known answers.
UGGCUCAGUUCAGCAGGAACAG; MID
AGGUUACCCGAGCAACUUUGCA; LOW
UCGUGCAUCCCUUUAGAGUGUU; MID
UGUAAACAUCCUACACUCAGCU; HIGH
AAAGCGCUUCCCUUUGCUGGA; HIGH
CACUCAGCCUUGAGGGCACUUUC; HIGH

Consider `CAUCUUACCGGACAGUGCUGGA` . To which 3' UTR reporter interaction score class does it belong? MID

Consider `UGUAAACAUCCUACACUCUCAGC` . To which 3' UTR reporter interaction score class does it belong? LOW

Consider `UCGUACCGUGAGUAAUAAUGC` . To which 3' UTR reporter interaction score class does it belong? HIGH

Consider `GGCGGAGGGAAGUAGGUCCGUUGGU` . To which 3' UTR reporter interaction score class does it belong? HIGH

Consider `UGUCAGUUUGUCAAAUACCCC` . To which 3' UTR reporter interaction score class does it belong? MID

Consider `UGUGCAAAUCUAUGCAAAACUGA` . To which 3' UTR reporter interaction score class does it belong? MID

Consider `UGGUGCGGAGAGGGCCCACAGUG` . To which 3' UTR reporter interaction score class does it belong? LOW

Consider `UAGGCAGUGUCAUUAGCUGAUUG` . To which 3' UTR reporter interaction score class does it belong? LOW

###

Test system: EZH2
Experiment: 3' UTR reporter interaction score (median-centred robust z-score of log2 firefly/Renilla activity); higher = less repression of the 3' UTR reporter
Details: HEK293T; 48 h
Please note: Yes applies when 3' UTR reporter interaction score is -0.4 or greater, and No applies otherwise.

UGUAAACAUCCCCGACUGGAAG; Yes

Textbook exercise: given the entry `CGGGUGGAUCACGAUGCAAUUU` , state whether its 3' UTR reporter interaction score is greater than or equal to -0.4. No

###

System: MYT1L
Test: 3' UTR reporter interaction score (median-centred robust z-score of log2 firefly/Renilla activity); higher = less repression of the 3' UTR reporter
Conditions: HEK293T; 48 h
measured.metric: 3' UTR reporter interaction score
Write the number on its own, no unit after it.

CCCAGUGUUUAGACUAUCUGUUC; 1.93

Entry `GCACAUUACACGGUCGACCUCU` : reported 3' UTR reporter interaction score = ? -0.0362

Entry `AAAGACAUAGGAUAGAGUCACCUC` : reported 3' UTR reporter interaction score = ? -1.82

Entry `AACAGGUGACUGGUUAGACAA` : reported 3' UTR reporter interaction score = ? -0.793

Entry `GCGAGGACCCCUCGGGGUCUGAC` : reported 3' UTR reporter interaction score = ? -0.47

Entry `GGCAGGUUCUCACCCUCUCUAGG` : reported 3' UTR reporter interaction score = ? -0.84

Entry `GAAGUGCUUCGAUUUUGGGGUGU` : reported 3' UTR reporter interaction score = ? -0.424

Entry `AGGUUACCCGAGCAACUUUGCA` : reported 3' UTR reporter interaction score = ? 2.75

Entry `CUUCUUGUGCUCUAGGAUUGU` : reported 3' UTR reporter interaction score = ? -0.427

Entry `UAGCAGCGGGAACAGUUCUGCAG` : reported 3' UTR reporter interaction score = ? -3.34

Entry `AAAGUGCUGUUCGUGCAGGUAG` : reported 3' UTR reporter interaction score = ? -1.47

Entry `UCCUUCAUUCCACCGGAGUCUG` : reported 3' UTR reporter interaction score = ? 1.34

Entry `UUAUCAGAAUCUCCAGGGGUAC` : reported 3' UTR reporter interaction score = ? -0.147

Entry `AUCAUAGAGGAAAAUCCACGU` : reported 3' UTR reporter interaction score = ? 0.0345

Entry `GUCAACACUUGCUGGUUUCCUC` : reported 3' UTR reporter interaction score = ? -2.13

Entry `AUCAGCAAACAUUUAUUGUGUG` : reported 3' UTR reporter interaction score = ? -0.934

Entry `CUGGAUGGCUCCUCCAUGUCU` : reported 3' UTR reporter interaction score = ? -0.148

Entry `AACACACCUGGUUAACCUCUUU` : reported 3' UTR reporter interaction score = ? 0.591

Entry `ACUGCAGUGAAGGCACUUGU` : reported 3' UTR reporter interaction score = ? -0.459

Entry `AUGGAGAUAGAUAUAGAAAU` : reported 3' UTR reporter interaction score = ? -1.67

Entry `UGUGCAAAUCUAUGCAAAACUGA` : reported 3' UTR reporter interaction score = ? 0.342

Entry `UAACAGUCUACAGCCAUGGUCG` : reported 3' UTR reporter interaction score = ? 1

Entry `UAAAUCCCAUGGUGCCUUCUCCU` : reported 3' UTR reporter interaction score = ? -0.319
